Target protein (sequence): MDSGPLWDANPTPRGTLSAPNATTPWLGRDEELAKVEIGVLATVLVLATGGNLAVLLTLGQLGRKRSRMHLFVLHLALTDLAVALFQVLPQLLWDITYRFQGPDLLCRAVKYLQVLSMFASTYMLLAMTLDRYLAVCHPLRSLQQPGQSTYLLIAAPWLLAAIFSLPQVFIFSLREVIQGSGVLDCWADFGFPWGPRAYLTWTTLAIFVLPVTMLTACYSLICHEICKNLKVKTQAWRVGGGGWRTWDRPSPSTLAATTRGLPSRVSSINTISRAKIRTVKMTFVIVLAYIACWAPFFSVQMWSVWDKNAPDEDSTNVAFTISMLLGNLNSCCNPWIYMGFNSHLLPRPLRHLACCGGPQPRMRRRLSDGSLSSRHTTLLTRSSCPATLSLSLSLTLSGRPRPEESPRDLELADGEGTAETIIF
For each entry below, report its Ki value.

Dear colleague, please send me the reported Ki for CCOc1ncccc1[C@]1(NC(=O)N2CC(N3CCC(N4CCOCC4)CC3)C2)C(=O)N(S(=O)(=O)c2ccccc2OC)c2ccc(C#N)cc21 when you can.
1 to 10 nM

Dear colleague, please send me the reported Ki for COc1ccc(S(=O)(=O)N2C(=O)[C@@](NC(=O)N3CC(N4CCC(NC5COC5)CC4)C3)(c3cccnc3OC)c3cc(C#N)ccc32)c(OC)c1 when you can.
1 to 10 nM

Dear colleague, please send me the reported Ki for CCOc1ncccc1[C@]1(NC(=O)N2CC(N3CCC(N4CC(O)C4)CC3)C2)C(=O)N(S(=O)(=O)c2ccc(OC)cc2OC)c2ccc(C#N)cc21 when you can.
1 to 10 nM

Dear colleague, please send me the reported Ki for CCOc1ncccc1[C@]1(NC(=O)N2CC(N3CCC(N4CCOCC4)CC3)C2)C(=O)N(S(=O)(=O)c2ccc(F)cc2F)c2ccc(C#N)cc21 when you can.
1 to 10 nM

Dear colleague, please send me the reported Ki for CCOc1ncccc1[C@]1(NC(=O)N2CC(N3CCC(N4CCOCC4)CC3)C2)C(=O)N(S(=O)(=O)c2ccc(F)cc2OC)c2ccc(C#N)cc21 when you can.
1 to 10 nM

Dear colleague, please send me the reported Ki for COc1ncccc1[C@]1(NC(=O)N2CC(N3CCC(N(C)C4COC4)CC3)C2)C(=O)N(S(=O)(=O)c2ccc(F)cc2)c2ccc(C#N)cc21 when you can.
1 to 10 nM

Dear colleague, please send me the reported Ki for CCOc1ncccc1[C@]1(NC(=O)N2CC(N3CCC(N4CC(F)(F)C4)CC3)C2)C(=O)N(S(=O)(=O)c2ccc(OC)cc2OC)c2ccc(C#N)cc21 when you can.
10 to 100 nM

Dear colleague, please send me the reported Ki for COc1ccc(S(=O)(=O)N2C(=O)[C@@](NC(=O)N3CC(N4CCC(N5CCOCC5)CC4)C3)(c3cccnc3OC)c3cc(C#N)ccc32)c(OC)c1 when you can.
< 1 nM

Dear colleague, please send me the reported Ki for CCOc1ncccc1[C@]1(NC(=O)N2CC(N3CCC(N4CC(C5COC5)C4)CC3)C2)C(=O)N(S(=O)(=O)c2ccc(OC)cc2OC)c2ccc(C#N)cc21 when you can.
< 1 nM

Dear colleague, please send me the reported Ki for COc1ccc(S(=O)(=O)N2C(=O)[C@@](NC(=O)N3CC(N4CCC(N(C)C5COC5)CC4)C3)(c3cccnc3OC)c3cc(C#N)ccc32)c(F)c1 when you can.
1 to 10 nM

Dear colleague, please send me the reported Ki for CCOc1ncccc1[C@]1(NC(=O)N2CC(N3CCC(N4CCOCC4)CC3)C2)C(=O)N(S(=O)(=O)c2cc(F)c(OC)cc2OC)c2ccc(C#N)cc21 when you can.
1 to 10 nM

Dear colleague, please send me the reported Ki for COc1ccc(S(=O)(=O)N2C(=O)[C@@](NC(=O)N3CC(N4CCC(N(C)C5COC5)CC4)C3)(c3cc(OC)ccc3OC)c3cc(C#N)ccc32)c(OC)c1 when you can.
< 1 nM

Dear colleague, please send me the reported Ki for CCOc1ncccc1[C@]1(NC(=O)N2CC(N3CCC(N(C)C4COC4)CC3)C2)C(=O)N(S(=O)(=O)c2ccc(OC)cc2OC)c2ccc(Cl)cc21 when you can.
< 1 nM

Dear colleague, please send me the reported Ki for CCOc1ncccc1[C@]1(NC(=O)N2CC(N3CCC(N(CC)C4COC4)CC3)C2)C(=O)N(S(=O)(=O)c2ccc(OC)cc2OC)c2ccc(C#N)cc21 when you can.
1 to 10 nM

Dear colleague, please send me the reported Ki for CCOc1ncccc1[C@]1(NC(=O)N2CC(N3CCC(N4CCC5(CC4)COC5)CC3)C2)C(=O)N(S(=O)(=O)c2ccc(OC)cc2OC)c2ccc(C#N)cc21 when you can.
1 to 10 nM

Dear colleague, please send me the reported Ki for CCOc1ncccc1[C@]1(NC(=O)N2CC(N3CCC(N4CCOCC4)CC3)C2)C(=O)N(S(=O)(=O)c2ccc(OC)cc2F)c2ccc(C#N)cc21 when you can.
< 1 nM
